As shown below, each of these binders has a reported glycan array binding signal (z-score) value.
Target: GlcNAc(b1-3)Gal(b1-4)GlcNAc(b1-2)Man(a1-3)[GlcNAc(b1-3)Gal(b1-4)GlcNAc(b1-2)Man(a1-6)]Man(b1-4)GlcNAc(b1-4)[Fuc(a1-6)]GlcNAc
Assay: glycan array binding signal (z-score within array); higher = stronger binding
Details: glycan notation: IUPAC condensed, linker removed
This excerpt belongs to a sample that is enriched for the strongest signals.

Binder	glycan array binding signal (z-score)
LCA (Lens culinaris), P02870 (protein) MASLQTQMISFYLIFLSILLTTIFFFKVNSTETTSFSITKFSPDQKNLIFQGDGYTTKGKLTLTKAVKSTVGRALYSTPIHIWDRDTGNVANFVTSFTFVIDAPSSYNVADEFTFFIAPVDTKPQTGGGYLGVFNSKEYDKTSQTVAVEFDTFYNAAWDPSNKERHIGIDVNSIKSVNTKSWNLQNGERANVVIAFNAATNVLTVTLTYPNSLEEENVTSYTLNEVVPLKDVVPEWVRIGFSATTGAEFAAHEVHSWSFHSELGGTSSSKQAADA	5.29
HHA (Hippeastrum hybrid) (protein) MQQDCNLVLYDVDKPIWASNTGGLARDCHLNMQSDGNLVVYAPRNQVIWASNTQGENGNYVCILQKDRNVVIYGTARWATGTNIHGAGIVGVPGSAPQNTTAEMIKLVRKYLITK	-0.147
AMA (Arum maculatun) (protein) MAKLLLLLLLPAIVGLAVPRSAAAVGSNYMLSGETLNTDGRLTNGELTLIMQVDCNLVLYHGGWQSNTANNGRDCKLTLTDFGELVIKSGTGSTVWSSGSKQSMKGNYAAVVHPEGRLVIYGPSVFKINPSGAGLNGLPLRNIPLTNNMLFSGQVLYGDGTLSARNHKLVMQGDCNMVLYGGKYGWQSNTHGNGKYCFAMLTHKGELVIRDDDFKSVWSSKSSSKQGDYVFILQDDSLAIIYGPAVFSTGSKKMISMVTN	2.21
